B1: TPRG1 (parent)
chain: ETIQGFWLLTKIDHWNNEKERILL

variants of: B1; assay: protein stability index of a GFP-peptide fusion (GPS, HEK-293T) (PSI 1-6); higher = more stable; details: c terminus: a fixed tail appended;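 further: lentivirally expressed fusions sorted by FACS into six bins by GFP to DsRed ratio, PSI derived from sequencing read proportions per bin multiplied by bin number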
readout.label: protein stability index
Answers are plain numbers.

I22H: 2.02
N16P: 2.99
F6G: 1.97
I3E: 2.04

# map each variant to its protein stability index
1. L8H
2. D13I

1. 2.04
2. 3.03
